Experiment: NCI Yeast Anticancer Drug Screen. Data for the sgs1 mgt1 strain (AID 161);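 note: 0% = growth of cultures given vehicle only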
Settings: S. cerevisiae sgs1 mgt1 strain, at 50.0 µM, stronger effect = higher value
This is part of a sample that, as a whole, favours compounds with a hit. Of some 79,000 tested, about 15% had one in any assay. Activity calls are given as the source filed them. Cut-off read from the data, not from the text of the source: active = growth inhibition above about 70%; inactive = the rest.
Each entry below carries its reported growth inhibition.
MEASURED ENDPOINT: growth inhibition

[
  {
    "MOLECULE": "CCNCC(C)(C)O",
    "RESULT": "5.5% (inactive)"
  },
  {
    "MOLECULE": "NC(=O)c1cc2c3ccccc3ccn2c1-c1ccccc1",
    "RESULT": "46.7% (inactive)"
  },
  {
    "MOLECULE": "O=C(O)Cc1ccccn1",
    "RESULT": "-1.75% (inactive)"
  },
  {
    "MOLECULE": "CC(=O)OCC1CCC(COC(C)=O)CC1 (configuration not stated)",
    "RESULT": "-10.4% (inactive)"
  },
  {
    "MOLECULE": "COc1nc(Nc2cccc(C(F)(F)F)c2)nc(OC)n1",
    "RESULT": "15.4% (inactive)"
  },
  {
    "MOLECULE": "C=C(C)COc1ccc(C(C)(C)C)cc1",
    "RESULT": "11.1% (inactive)"
  },
  {
    "MOLECULE": "CN1C(=O)NC(c2ccc(Cl)cc2)(c2ccc(Cl)cc2)C1=O",
    "RESULT": "-23% (inactive)"
  }
]
